Tested on: RXF 631
assay.remarks: NCI tumour cell line growth inhibition, 48 h
The source made the active and inactive calls. Rule as the data show it: active = GI50 up to about 1.1 µM and inactive = higher.
parameter: GI50

As a guide, the following entries are already answered.
{"molecule": "CC1=CC(=O)CCC2(C)C1CC[C@@H]2OC=O (some centres not stated)", "parameter": "GI50", "reported.value": "> 100 µM (inactive)"}
{"molecule": "COc1cccc2nc3cc(C)c(C)cc3nc12", "parameter": "GI50", "reported.value": "> 100 µM (inactive)"}
{"molecule": "CC1(CO)C(=O)OC12CCCCC2 (configuration not stated)", "parameter": "GI50", "reported.value": "> 100 µM (inactive)"}

Per the records, this molecule ( "C=CCN1C(=O)CS/C1=N\NC(=O)c1c(C)nc2sccn12" ) has GI50 equal to > 100 µM (inactive)

Per the records, this molecule ( Cn1c2c(c3ccccc31)C1C(=O)N(c3ccccc3)C(=O)C1CC2 (configuration not stated) ) has GI50 equal to > 303 µM (inactive)

Per the records, this molecule ( "C1CCN(c2nsc(N3CCCCC3)n2)CC1" ) has GI50 equal to > 100 µM (inactive)

Per the records, this molecule ( "COC(=O)c1ccccc1NC(=O)C(=O)CC(=O)c1ccccc1NC1=CC(=O)C(=O)c2ccccc21" ) has GI50 equal to 26.5 µM (inactive)

----------
Test system: SK-MEL-28
assay.remarks: NCI tumour cell line growth inhibition, 48 h
Active and inactive are the calls of the source. Cut-off read from the data, not from the text of the source: active = GI50 up to about 1.1 µM and inactive = higher.
parameter: GI50

As a guide, the following entries are already answered.
{"molecule": "CCc1cc2c(cc1CCCC(=O)O)CC1(Cc3ccc(C(=O)O)cc3C1)C2 (stereo unspecified)", "GI50": "> 100 µM (inactive)"}
{"molecule": "COC(=O)C1=Nc2c(C)nn(-c3ccccc3)c2N=C(c2ccc(C)cc2)C1", "GI50": "> 10 µM (inactive)"}
{"molecule": "O/N=C\\c1c(O)ccc2ccccc12", "GI50": "47.2 µM (inactive)"}

Per the records, this molecule ( CC(C)CN(CC(C)C)C(=O)C1CCCC[C@@H]1C(=O)O (stereo partly specified) ) has GI50 equal to > 100 µM (inactive)

Per the records, this molecule ( "Clc1ccc(OCc2nnc3sc(-c4ccc(-c5ccc(Cl)cc5Cl)o4)nn23)cc1" ) has GI50 equal to > 100 µM (inactive)

Per the records, this molecule ( COc1cc(-c2c3c(cc4c2OCO4)[C@@H](Nc2ccc(-c4ccc(-c5ccc(N[C@@H]6c7cc8c(cc7C(c7cc(OC)c(O)c(OC)c7)[C@H]7C(=O)OC[C@H]67)OCO8)cc5)cc4)cc2)[C@H]2COC(=O)[C@@H]2C3)cc(OC)c1O (stereo partly specified) ) has GI50 equal to 1.85 µM (inactive)

Per the records, this molecule ( CC1Oc2c(c(=O)oc3ccccc23)[C@@]1(C)CC1C[C@H](C)C(=O)O1 (stereo partly specified) ) has GI50 equal to 18.7 µM (inactive)

Per the records, this molecule ( "O=C1C=CC(=O)N1Nc1ccc([N+](=O)[O-])cc1[N+](=O)[O-]" ) has GI50 equal to > 43.4 µM (inactive)

Per the records, this molecule ( "CN(C)C(=O)Oc1ccc(-c2cn3cc(NC(=O)c4ccccc4)ccc3n2)cc1" ) has GI50 equal to > 100 µM (inactive)

Per the records, this molecule ( "NS(=O)(=O)c1ccc(NC(=O)COC(=O)c2cccc3c(=O)c4ccccc4[nH]c23)cc1" ) has GI50 equal to 50.8 µM (inactive)

Per the records, this molecule ( "CNC(=O)CN(C)C(=O)CCC(=O)N(C)C" ) has GI50 equal to > 100 µM (inactive)

----------
Test system: UO-31
assay.remarks: NCI tumour cell line growth inhibition, 48 h
Calls of active or inactive are those of the source. Rule as the data show it: active = GI50 up to about 1.1 µM and inactive = higher.
parameter: GI50

{"molecule": "CCNC(=O)/C=C/CCC#Cc1ccc(-c2ccc(-c3cccs3)s2)s1", "GI50": "> 100 µM (inactive)"}
{"molecule": "N#CC1=C(Nc2ccccc2)SC=C(c2ccccc2)N=C1NCc1ccccc1", "GI50": "71 µM (inactive)"}
{"molecule": "COc1cccc2nc3cc(C)c(C)cc3nc12", "GI50": "61.2 µM (inactive)"}
{"molecule": "C/C(CC(O)(C(F)(F)Cl)C(F)(F)Cl)=N\\Nc1ccccc1", "GI50": "31.2 µM (inactive)"}

Per the records, this molecule ( "COCN1C(=O)[C@@H]2C[C@@H](O)CN2C(=O)c2ccccc21" ) has GI50 equal to > 100 µM (inactive)

Per the records, this molecule ( COP1(=S)OCC2CCC[C@@H]2O1 (stereo partly specified) ) has GI50 equal to > 100 µM (inactive)

Per the records, this molecule ( COc1ccc(C2C(Cl)C(=O)N2NC(=O)Cc2ccccc2)cc1 (stereo unspecified) ) has GI50 equal to > 100 µM (inactive)

Per the records, this molecule ( CC(=O)NC(CCCN)C(=O)NCc1ccccc1 (stereo unspecified) ) has GI50 equal to > 100 µM (inactive)

Per the records, this molecule ( COc1ccc2c(c1)CN1C(=N2)CSC1c1cc([N+](=O)[O-])ccc1Cl (stereo unspecified) ) has GI50 equal to 41.1 µM (inactive)

Per the records, this molecule ( "O=C(O)CCSC(=S)Nc1cccc(F)c1" ) has GI50 equal to > 100 µM (inactive)

Per the records, this molecule ( COc1cc([C@@H]2C3C(=O)c4ccccc4C3[C@@H](c3cc(OC)c(OC)c(OC)c3)C23Cc2ccccc2C3=O)cc(OC)c1OC (stereo partly specified) ) has GI50 equal to > 100 µM (inactive)

Per the records, this molecule ( "CN1CCN(CCCBr)CC1" ) has GI50 equal to > 100 µM (inactive)

Per the records, this molecule ( O=C(O)c1ccc2c(c1)CC1(C2)Cc2cc3c(cc2C1=O)CCC3 (stereo unspecified) ) has GI50 equal to 85.1 µM (inactive)

Per the records, this molecule ( COc1ccc(C2C(C#N)=C(S)N(C3OC(COC(C)=O)C(OC(C)=O)C(OC(C)=O)C3OC(C)=O)C(c3ccccc3)=C2C(C)=O)cc1 (stereo unspecified) ) has GI50 equal to 21.6 µM (inactive)

Per the records, this molecule ( "Nc1ncc2c(n1)-c1ccccc1OC2" ) has GI50 equal to 45.2 µM (inactive)

----------
Tested on: OVCAR-5
assay.remarks: NCI tumour cell line growth inhibition, 48 h
Active and inactive are the calls of the source. Rule as the data show it: active = GI50 up to about 1.1 µM and inactive = higher.
parameter: GI50

As a guide, the following entries are already answered.
{"compound": "O=C(C[N+]1(c2ccccc2)CCOCC1)c1ccccc1", "GI50": "> 100 µM (inactive)"}
{"compound": "Cn1c2ccc3cc2c(=S)c2cc(ccc21)OCCOCCOCCOCCOCCOCCO3", "GI50": "> 10 µM (inactive)"}

Per the records, this compound ( "O=S(=O)(O)c1ccc2c(/N=N/c3ccc(Cl)cc3)c(O)ccc2c1" ) has GI50 equal to > 100 µM (inactive)

Per the records, this compound ( COP1(=S)OCC2CCC[C@@H]2O1 (stereo not given in full) ) has GI50 equal to > 100 µM (inactive)

Per the records, this compound ( "COc1cc([C@H]2CC(=O)C[C@@H](c3cc(OC)c(OC)c(OC)c3)C23C(=O)c2ccccc2C3=O)cc(OC)c1OC" ) has GI50 equal to > 100 µM (inactive)

Per the records, this compound ( CC(C)(C)OC(=O)NCCC1CN(C(=O)c2ccccc2)c2ccccc21 (stereo not given) ) has GI50 equal to 32.7 µM (inactive)

Per the records, this compound ( "CN(C)C(=O)Oc1ccc(-c2cn3cc(NC(=O)c4ccccc4)ccc3n2)cc1" ) has GI50 equal to > 100 µM (inactive)

Per the records, this compound ( "O=C(c1ccccn1)c1nnn2ccccc12" ) has GI50 equal to > 100 µM (inactive)

Per the records, this compound ( "NC(=O)/N=C1\NCCC(=O)N1CCc1c[nH]c2ccccc12" ) has GI50 equal to 39.4 µM (inactive)

Per the records, this compound ( "CC/C(CC(=O)CCC(=O)Nc1c(C)cccc1C)=N\NC(=O)NN" ) has GI50 equal to > 100 µM (inactive)

----------
Tested on: MDA-N
assay.remarks: NCI tumour cell line growth inhibition, 48 h
Active and inactive are the calls of the source. Cut-off read from the data, not from the text of the source: active = GI50 up to about 1.1 µM and inactive = higher.
Respond with a class label; see 1 (yes) = active, 0 (no) = inactive

{"compound": "CCOc1cc(CC[N+](C)(C)C)c2c(ccc3ccc(OC)c(OC)c32)c1OC", "group": "0 (no)"}
{"compound": "CC12CCC(C(Br)(Br)C1=O)C2(C)C (stereo unspecified)", "group": "1 (yes)"}

Then this compound:
Test call, this compound: "COC(=O)C1=C(C)NC(C)=C(C(=O)OC)C1c1ccc(N=O)cc1"
0 (no)

----------
Overview of recorded GI50 for various molecules
System: A549
assay.remarks: NCI tumour cell line growth inhibition, 48 h
Calls of active or inactive are those of the source. Cut-off read from the data, not from the text of the source: active = GI50 up to about 1.1 µM and inactive = higher.

Per the records, this molecule ( "CCOC(=O)C(NC(=O)NC(C(=O)OCC)C(=O)OCC)C(=O)OCC" ) has GI50 equal to > 100 µM (inactive)

Per the records, this molecule ( "O=Cc1cc(O)c(O)c(O)c1-c1c(C=O)cc(O)c(O)c1O" ) has GI50 equal to > 100 µM (inactive)

Per the records, this molecule ( CC(C)C1COC(C(C)(C)C2=N[C@@H](C(C)C)CO2)=N1 (stereo partly drawn) ) has GI50 equal to > 100 µM (inactive)
